Origin of measurements: patent US20150086555A1

target: recombinant soluble homotrimeric HA of A/northern shoveler/California/HKWF115/07 (H6) (Influenza A virus A/northern shoveler/California/HKWF115/2007(H6N1)); test: HA microarray, BCC supernatant; conditions: remark: other sources report otherwise
I'd be grateful if you could share measured Trimeric HA Binding: RLU for these entries.
Reply with the number and its unit after it.

Example binders with recorded Trimeric HA Binding: RLU:
Trimeric HA Binding: RLU for TCN-532 (5262_H18) (antibody, V domains shown) VH: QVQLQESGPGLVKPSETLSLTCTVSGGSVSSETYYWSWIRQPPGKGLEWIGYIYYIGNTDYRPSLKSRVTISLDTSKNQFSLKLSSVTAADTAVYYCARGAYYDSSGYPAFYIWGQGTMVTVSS VL: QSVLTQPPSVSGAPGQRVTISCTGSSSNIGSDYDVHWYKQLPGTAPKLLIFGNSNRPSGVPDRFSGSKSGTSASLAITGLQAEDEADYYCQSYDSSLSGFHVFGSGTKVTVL is 511 RLU

Trimeric HA Binding: RLU for TCN-544 (5082_A19) (antibody, V domains shown) VH: QVQLQESGPGLVKPSETLSLTCTVSRGSIGHYFWSWIRQPPGKGLEWIGYISYSGSTKYNPSLRSRVTISVDTSKNQFSLNLNSVTATDTALYYCAREDYDILTGAGPGMEVWGQGTTVTVSS VL: QSMLTQPPSASGTPGQRVTISCSGSSSNIGSNTVNWFKHLPGTAPKLLIYRNDLRPSGVPDRFSGSKSGTSASLAISGLQSEDEADYYCATWDDSLNGFYVFGTGTKVTVL is 1690 RLU

Trimeric HA Binding: RLU for TCN-527 (5086_C06) (antibody, V domains shown) VH: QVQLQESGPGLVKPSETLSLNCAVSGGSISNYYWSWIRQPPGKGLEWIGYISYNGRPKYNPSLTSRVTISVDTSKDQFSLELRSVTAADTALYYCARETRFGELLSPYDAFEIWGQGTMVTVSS VL: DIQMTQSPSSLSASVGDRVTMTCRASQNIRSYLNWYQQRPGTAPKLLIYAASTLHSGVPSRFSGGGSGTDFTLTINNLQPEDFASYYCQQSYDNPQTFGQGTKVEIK is 30300 RLU

Next:
Trimeric HA Binding: RLU for TCN-535 (5246_P19) (antibody, V domains shown) VH: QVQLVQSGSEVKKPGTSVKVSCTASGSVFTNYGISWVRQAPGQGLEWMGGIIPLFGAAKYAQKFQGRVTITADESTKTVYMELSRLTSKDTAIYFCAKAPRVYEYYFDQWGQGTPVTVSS VL: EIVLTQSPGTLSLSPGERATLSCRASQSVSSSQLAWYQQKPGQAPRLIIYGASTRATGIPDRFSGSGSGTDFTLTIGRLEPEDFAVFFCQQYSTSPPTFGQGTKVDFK is 48200 RLU
